test: In vivo pharmacokinetic properties in mice; design: species or system mouse; conditions: mouse, plasma, oral; male ICR mice; single intravenous 5 mg/kg and intragastric 250 mg/kg study; read-out: Cmax
# Lookup of reported Cmax keyed by entry
Field format: number, assumed ng/mL, no unit text.

Solved cases (10 shown):
MOLECULE	OBSERVATION TYPE	READOUT VALUE
CCN(c1cc(O[C@H]2C[C@H](N3CCOCC3)C2)cc(C(=O)NCc2c(C)cc(C)[nH]c2=O)c1C)C1CC2CCC(C1)O2 (stereo partly drawn)	Cmax	21000
CCN(c1cc(O[C@H]2C[C@H](N3C[C@@H](C)O[C@@H](C)C3)C2)cc(C(=O)NCc2c(C)cc(C)[nH]c2=O)c1C)C1CC2CCC(C1)O2 (stereo partly drawn)	Cmax	19600
CCN(c1cc(O[C@H]2C[C@H](N3CCOCC3)C2)cc(C(=O)NCc2c(C)cc(C)[nH]c2=O)c1C)C1CCOCC1	Cmax	16500
CCN(c1cc(O[C@H]2C[C@H](N3C[C@@H](C)O[C@@H](C)C3)C2)cc(C(=O)NCc2c(OC)cc(C)[nH]c2=O)c1C)C1CCC(F)(F)CC1	Cmax	10600
CCN(c1cc(O[C@H]2C[C@H](N3CCCCC3)C2)cc(C(=O)NCc2c(C)cc(C)[nH]c2=O)c1C)C1CCOCC1	Cmax	9440
CCN(c1cc(O[C@H]2C[C@H](N3C[C@@H](C)O[C@@H](C)C3)C2)cc(C(=O)NCc2c(OC)cc(C)[nH]c2=O)c1C)C1CC2CCC(C1)O2 (stereo partly drawn)	Cmax	10200
CCN(c1cc(O[C@H]2C[C@H](N3CCCCC3)C2)cc(C(=O)NCc2c(C)cc(C)[nH]c2=O)c1Cl)C1CCOCC1	Cmax	16700
CCN(c1cc(O[C@H]2C[C@H](N3CCCCC3)C2)cc(C(=O)NCc2c(OC)cc(C)[nH]c2=O)c1C)C1CCOCC1	Cmax	10700
CCN(c1cc(O[C@H]2C[C@H](N3CCCCC3)C2)cc(C(=O)NCc2c(OC)cc(C)[nH]c2=O)c1C)C1CCC(F)(F)CC1	Cmax	9350
CCN(c1cc(O[C@H]2C[C@H](N3CCC(C)CC3)C2)cc(C(=O)NCc2c(C)cc(C)[nH]c2=O)c1Cl)C1CCOCC1	Cmax	16600

Q) # get_value(readout='Cmax', item= CCN(c1cc(O[C@H]2C[C@H](N3CCCCC3)C2)cc(C(=O)NCc2c(C)cc(C)[nH]c2=O)c1C)C1CCC(F)(F)CC1 )
A) 9250

Q) # lookup: Cmax of CCN(c1cc(O[C@H]2C[C@H](N3C[C@@H](C)O[C@@H](C)C3)C2)cc(C(=O)NCc2c(C)cc(C)[nH]c2=O)c1C)C1CCC(F)(F)CC1
A) 10500
